All figures here come from patent US12473290B2.

# Protocol: Kit225 T Cell Assay, IL-23-stimulated STAT-dependent luciferase reporter
# Format: cell-based
# Particulars: Kit225 T cells, 20 ng/mL human recombinant IL-23, 5-6 hours, luciferase expression
Measure Name: IC50 (nM)

Please review the following examples before continuing.
Molecule | IC50 / nM
N#Cc1cnc2c(Nc3ccc(C(=O)N[C@@H]4CCC[C@@H]4O)cn3)cc(NCC3CC3)nn12 | 240
N#Cc1cnc2c(Nc3ccc(C(=O)NCC4CC4)cn3)cc(NCC3CC3)nn12 | 150
N#Cc1cnc2c(Nc3cccc(N4CCOCC4)n3)cc(N[C@@H]3CCCC[C@H]3O)nn12 | 550
CC(=O)N1CCN(c2cccc(Nc3cc(N[C@@H]4CCCC[C@H]4O)nn4c(C#N)cnc34)n2)CC1 | 350
CC(C)Oc1nc(Nc2cc(N[C@@H]3CCCC[C@H]3O)nn3c(C#N)cnc23)ccc1C(=O)N1CCCC1 | 240

A = CC1(C(=O)Nc2cccc(Nc3cc(N[C@@H]4CCCC[C@H]4O)nn4c(C#N)cnc34)n2)CC1
B = N#Cc1cnc2c(Nc3cccc(NC(=O)c4ccccc4)n3)cc(N[C@@H]3CCCC[C@H]3O)nn12
C = CN1CCN(c2cccc(Nc3cc(N[C@@H]4CCCC[C@H]4O)nn4c(C#N)cnc34)n2)CC1
D = CS(=O)(=O)NCc1ccc(-c2cccc(Nc3cc(N[C@@H]4CCCC[C@H]4O)nn4c(C#N)cnc34)n2)cc1
Request: Task for the reader: rank each entry by its IC50, from the minimum upward. Form entry: ranked labels (order as requested).
Response: B, C, A, D
